Record set: Ki | Substance-P receptor (Homo sapiens, UniProt P25103) | literature, multiple sources.
quantityKind: Ki (nM)

{"compound": "Cc1cc(F)ccc1[C@H]1C[C@@H](NC2CCC2)CCN1C(=O)N(C)[C@H](C)c1cc(C(F)(F)F)cc(C(F)(F)F)c1", "Ki, nM": 0.17}

P = Cc1cc(F)ccc1[C@H]1CNCCN1C(=O)N1CCNCC1c1cc(C(F)(F)F)cc(C(F)(F)F)c1 (stereo in doubt; 5b)
Q = Cc1nsc(-c2nnc3n2CCN(C(=O)c2ccc(-c4cccs4)cc2)[C@@H]3C)n1
Q) Min Ki? P | Q Reply briefly: the label of your chosen item.
A) P

====

Record set: Ki | Substance-P receptor (Homo sapiens, UniProt P25103) | literature, multiple sources.
quantityKind: Ki (nM)

Examples from the recorded data:
{"molecule": "CN(C[C@@H](CCN1CCC(c2ccccc2[S@+](C)[O-])CC1)c1ccc(Cl)c(Cl)c1)C(=O)c1cc(C#N)cc2ccccc12 (stereo in doubt)", "reportedValue": 0.1}
{"molecule": "CO/N=C(\\COCc1cc(C(F)(F)F)cc(C(F)(F)F)c1)C(CCN1CCN(CC(=O)N2CCC(N(C)C)C2)CC1)c1ccc(Cl)c(Cl)c1 (stereo not given)", "reportedValue": 14}
{"molecule": "O=C(c1cccc2ccccc12)N1CCC2(CC1)NC(=O)N(c1cc(C(F)(F)F)cc(C(F)(F)F)c1)C2=O", "reportedValue": 339}
{"molecule": "CO/N=C(\\C(=O)N(C)Cc1cc(C(F)(F)F)cc(C(F)(F)F)c1)C(CCN1CCC(O)(c2ccccc2)CC1)c1ccc(Cl)c(Cl)c1 (stereo not given)", "reportedValue": 6}
{"molecule": "FC(F)(F)c1cc(COCC(c2ccc(Cl)c(Cl)c2)N2CCNCC2)cc(C(F)(F)F)c1 (stereo not given)", "reportedValue": 6.31}
{"molecule": "CN1C(=O)OC2(CCN(CC[C@@](C)(C(=O)N[C@H](Cc3ccccc3)C(=O)NCCO)c3ccc(Cl)c(Cl)c3)CC2)c2cc(F)ccc21", "reportedValue": 31.6}
{"molecule": "CO/N=C(\\COCc1cc(Br)cc(Br)c1)C(CCN1CCC(O)(c2ccccc2)CC1)c1ccc(Cl)c(Cl)c1 (stereo not given)", "reportedValue": 10}
{"molecule": "CO/N=C(\\COCc1cc(C(F)(F)F)cc(C(F)(F)F)c1)C(CCN1CCC(N2CCCC(C(N)=O)C2)CC1)c1ccc(Cl)c(Cl)c1 (stereo not given)", "reportedValue": 13}

P = CO/N=C(\COCc1cc(C(F)(F)F)cc(C(F)(F)F)c1)C(CCN1CCC(CN2CCCC(CC3CC3)C2=O)CC1)c1ccc(Cl)c(Cl)c1 (stereo not given)
Q = CO/N=C(\COCc1cc(C(F)(F)F)cc(C(F)(F)F)c1)C(CCN1CCNCC1)c1ccc(Cl)c(Cl)c1 (stereo not given)
R = N#Cc1cccc(CN2CCC3(CC2)NC(=O)N(Cc2cc(C(F)(F)F)cc(C(F)(F)F)c2)C3=O)c1
S = CN(Cc1ccccc1)C(=O)[C@H](Cc1ccc2ccccc2c1)NC(=O)[C@@H]1CCCN1C(=O)Nc1cccc(C(N)=O)c1
T = Cc1cccc(NC(=O)N2CCC3(CC2)NC(=O)N(Cc2cc(C(F)(F)F)cc(C(F)(F)F)c2)C3=O)c1
Q) Returns the items ordered by Ki, from maximum to minimum. Form entry: labels listed in requested order.
A) R, T, Q, P, S
